Experiment: Human HepG2 cell viability assay in 384 well format
Type: toxicity, cell-based
Design: dose 125 nL, time 70.5 hour; concentration not given beside the values
Conditions: HepG2 cells, read-out: Inhibition
Listed compounds paired with reported cytotoxicity at 70.5 h

Worked cases, answers included:
[[record]]
compound = "CCc1cnccc1C(=O)NC1CCN(C(=O)OC)CC1"
result = "24.5%"

[[record]]
compound = "CCS(=O)(=O)NC[C@]12COC[C@H]1CN(CCc1ccccc1)C2"
result = "-5.39%"

[[record]]
compound = "Cc1ccc(-c2cc(C(=O)NCCCc3csc(N)n3)[nH]n2)s1"
result = "-3.12%"

[[record]]
compound = "CCOC(=O)CSc1nnc([C@@H](N)C(C)C)o1"
result = "-7.09%"


input: Indicate the recorded cytotoxicity at 70.5 h value for this compound: Cc1occc1C(=O)N1C[C@H]2CCCC(OCc3cccnc3)[C@H]2C1 (some centres undefined)
output: -4.67%

input: Please report cytotoxicity at 70.5 h for the following compound: O=C(CCc1cc(O)no1)N1CCCC(COc2ccc(F)cc2)C1 (centres undefined)
output: -3.78%

input: Provide measured cytotoxicity at 70.5 h value, entry: `COc1c(CNCc2cccc(Cn3ccnc3)c2)c(C)nn1C`
output: -1.14%

input: Give reported cytotoxicity at 70.5 h value for `CC(=O)N1CCC2(CC1)CN(C(=O)C1CC1)c1ccc(F)cc12`
output: -0.352%

---

Experiment: Human HepG2 cell viability assay in 384 well format
Assay type: toxicity, cell-based
Parameters: dose 125 nL, time 70.5 hour; concentration not given beside the values
Settings: HepG2 cells, read-out: Inhibition
measurement_label: cytotoxicity at 70.5 h

See these solved cases before continuing.
[[record]]
compound = "CCCN1CCC(CC(=O)N2CCC(C(O)c3nccn3C)CC2)CC1 (configuration not stated)"
measurement_label = "cytotoxicity at 70.5 h"
result = "-11.6%"

[[record]]
compound = "O=C1CCN(C(=O)CCc2ccc(Cl)cc2Cl)CCN1"
measurement_label = "cytotoxicity at 70.5 h"
result = "-6.13%"

[[record]]
compound = "O=C(CC1CCCC1)N[C@H]1CN(Cc2c[nH]cn2)C[C@@H]1C1CC1"
measurement_label = "cytotoxicity at 70.5 h"
result = "20.4%"


input: Identify measured cytotoxicity at 70.5 h associated with `COCc1ccc(C(=O)NS(=O)(=O)c2ccc3c(c2)CCC(=O)N3)cc1`
output: 17.1%

input: Report cytotoxicity at 70.5 h, nothing else, for this compound: `NC(=O)Cn1c(CO)cnc1SCC(=O)NCc1ccccc1Cl`
output: 15.7%

input: Report measured cytotoxicity at 70.5 h; entry is CN1CCOC(CNCc2coc(-c3ccccc3)n2)C1 (configuration not stated)
output: -0.149%

---

Experiment: Human HepG2 cell viability assay in 384 well format
Type: toxicity, cell-based
Set-up: dose 125 nL, time 70.5 hour; concentration not given beside the values
Details: HepG2 cells, read-out: Inhibition
Overview of recorded cytotoxicity at 70.5 h for various compounds
Give just the numeric value; % need not be written.

[[record]]
compound = "CC(C)OCCS(=O)(=O)NC1CCN(C2CCCC2)C1 (configuration not stated)"
numeric_value = 8.61

[[record]]
compound = "CC(C)c1nnc(NC(=O)Cc2csc(-c3nnc[nH]3)n2)s1"
numeric_value = 22.4

[[record]]
compound = "COCCCN1C(=O)CC[C@H]2CN(c3cc(C(N)=O)ccn3)CC[C@H]21"
numeric_value = -7.97

[[record]]
compound = "CN1CCN(C(=O)c2cn(Cc3ccccc3)c3ncccc23)CC1"
numeric_value = -3.43

[[record]]
compound = "O=C1[C@H]2CN(C3CCOCC3)C[C@H]2CN1Cc1cccc(F)c1"
numeric_value = 0.427

[[record]]
compound = "O=C1NC2(CCCN(C(=O)CCn3cncn3)C2)Oc2ccccc21 (configuration not stated)"
numeric_value = -4.04

[[record]]
compound = "O=C(Nc1ccc2scnc2c1)N1CCN([C@H]2CCCC[C@@H]2O)CC1"
numeric_value = -13.6

[[record]]
compound = "NC(=O)CCN1CCC(C(=O)c2cc(F)ccc2F)CC1"
numeric_value = 15

[[record]]
compound = "COc1cc(C)c(C(C)NC(=O)NCCCn2cncn2)cc1OC (configuration not stated)"
numeric_value = -5.14

[[record]]
compound = "Cc1nc(CCN2CCC(Oc3ccccc3F)CC2)cs1"
numeric_value = 9.73


input: Provide measured cytotoxicity at 70.5 h value, entry: `Cn1nc(CN2CCCCC2)c2c1CN(Cc1ccoc1)C2`
output: -7.22

input: For `CCN(CC)C(=O)c1ccc(CNc2cncc(-n3cccn3)n2)cc1` , write its cytotoxicity at 70.5 h.
output: -7.26

input: Answer with the recorded cytotoxicity at 70.5 h of `CCc1n[nH]c(SCC(=O)N2C[C@@H]3CC[C@H](C2)N(CC=C(C)C)C3)n1` only.
output: 0.686

input: Name the recorded cytotoxicity at 70.5 h of the item CC(=O)N1CC2(CCCCN2Cc2ccc(Cl)cc2)Cc2ccccc21 (configuration not stated) in your answer.
output: 5.47
